Target: Peptidylglycine alpha-amidating monooxygenase (Rattus norvegicus)
Sequence (whole entry): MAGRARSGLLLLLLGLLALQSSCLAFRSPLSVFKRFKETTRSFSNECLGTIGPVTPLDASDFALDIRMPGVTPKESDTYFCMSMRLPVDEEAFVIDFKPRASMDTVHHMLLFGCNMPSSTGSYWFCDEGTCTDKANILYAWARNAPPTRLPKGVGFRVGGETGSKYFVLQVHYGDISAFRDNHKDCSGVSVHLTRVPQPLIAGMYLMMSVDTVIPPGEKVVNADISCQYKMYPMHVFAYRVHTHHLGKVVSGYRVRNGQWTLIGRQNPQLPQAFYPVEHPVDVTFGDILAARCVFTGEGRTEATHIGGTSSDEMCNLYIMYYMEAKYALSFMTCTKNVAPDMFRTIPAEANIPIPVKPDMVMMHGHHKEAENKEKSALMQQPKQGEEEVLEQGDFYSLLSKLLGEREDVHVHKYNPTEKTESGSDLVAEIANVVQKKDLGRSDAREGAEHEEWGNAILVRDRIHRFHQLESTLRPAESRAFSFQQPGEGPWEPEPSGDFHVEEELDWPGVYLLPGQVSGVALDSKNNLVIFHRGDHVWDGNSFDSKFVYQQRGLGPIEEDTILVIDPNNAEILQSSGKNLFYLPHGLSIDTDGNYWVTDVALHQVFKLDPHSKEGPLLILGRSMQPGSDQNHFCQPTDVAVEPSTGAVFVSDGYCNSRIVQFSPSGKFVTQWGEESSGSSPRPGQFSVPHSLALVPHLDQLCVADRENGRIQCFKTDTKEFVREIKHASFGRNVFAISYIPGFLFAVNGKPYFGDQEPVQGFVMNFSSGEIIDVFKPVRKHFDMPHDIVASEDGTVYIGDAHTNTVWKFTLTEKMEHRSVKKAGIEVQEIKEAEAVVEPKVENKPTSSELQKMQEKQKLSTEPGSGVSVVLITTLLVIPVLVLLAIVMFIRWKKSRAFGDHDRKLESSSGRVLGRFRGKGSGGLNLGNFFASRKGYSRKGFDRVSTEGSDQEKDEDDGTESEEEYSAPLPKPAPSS
Test: Inhibition of rat recombinant peptidylglycine alpha-amidating monooxygenase assessed as inhibition of N-dansyl-Tyr-Val-Gly amidation
Where a SMILES comes first, the peptide text is derived from it. The star is where a group is joined. Dansyl = CN(C)c1cccc2c(S(=O)(=O)*)cccc12
MEASURED METRIC: Kis (µM)
The reply should be a number in µM, with the unit left off.

Q. Dear colleague, I am looking for the recorded Kis of the following molecule: `O=C(O)CSC(=S)c1ccccc1`
A. 39

Q. Which measured Kis value corresponds to COC(=O)CNC(=O)[C@@H](NC(=O)[C@H](Cc1ccc(O)cc1)NS(=O)(=O)c1cccc2c(N(C)C)cccc12)C(C)C (Dansyl-Tyr-Val-Gly-OMe) ?
A. 54

Q. Looking for the measured Kis of `O=C(O)CSC(=S)Cc1ccccc1` , can you help?
A. 7.9

Q. Param item = `O=C(O)CSC(=S)CCc1ccccc1` ; retrieve measured Kis.
A. 9.4

====

Give Vmax(app) for every item shown.
Biological target: Peptidylglycine alpha-amidating monooxygenase (Rattus norvegicus) (UniProt P14925)
Assay: Activity of rat recombinant peptidylglycine alpha-amidating monooxygenase assessed as stimulation of oxygen consumption
Where a SMILES comes first, the peptide text is derived from it. The star is where a group is joined. Boc = CC(C)(C)OC(=O)*
Number in s⁻¹, nothing else.

Q. Given the entry `O=C(O)CNC(=O)CCc1ccccc1` , report its measured Vmax(app).
A. 9.9

Q. Requested field: Vmax(app). Item: CC(C)(C)OC(=O)NCC(=O)NCC(=O)O (Boc-Gly-Gly-OH)
A. 7.5

Q. Reported Vmax(app), compound CC(Cc1ccccc1)C(=O)NCC(=O)O (centres undefined) : ____
A. 18

Q. For `O=C(O)CNC(=O)c1cccs1` , what is its reported Vmax(app)?
A. 9.3

Q. Bench note: what Vmax(app) did `O=C(O)CNC(=O)CCCCCCCc1ccccc1` show?
A. 8

Q. Vmax(app) for `Cc1ccccc1C(=O)NCC(=O)O` ?
A. 7.9

Q. Requested read-out: Vmax(app). Entry: `O=C(O)CNC(=O)SCc1ccccc1`
A. 0.69

Q. Field request: Vmax(app) | item: `O=C(O)CNC(=O)Nc1ccccc1`
A. 9.7

Q. Please report the recorded Vmax(app) for `CC(C)SCC(=O)NCC(=O)O` .
A. 1.8

Q. Give the measured Vmax(app) of `O=C(O)CNC(=O)c1ccco1` .
A. 7.5

Q. Report Vmax(app) for O=C(O)CNC(=O)C1CC1c1ccccc1 (centres undefined) please.
A. 10

Q. Item `Cc1cccc(C(=O)NCC(=O)O)c1` has what recorded Vmax(app)?
A. 6.4

Q. Could you tell me which Vmax(app) is on file for `O=C(O)CNC(=O)c1ccc(C(F)(F)F)cc1` ?
A. 2.8

Q. Can you share its Vmax(app)? I mean this compound: `O=C(O)CNC(=O)c1ccccc1I`
A. 3.1
